Tested on: 5-HT2
PROCEDURE TEXT: Quipazine inhibition (quipazine induced head twitches in rats)
Type: in vivo
SETTINGS: Rattus norvegicus, po, 24 h, read-out: Quipazine inhibition 24 hours (po) ED50
ED50 for assorted compounds
All answers are understood in µmol/kg, so give the number only.

// below: answered compounds
CC1(C)CNC(=O)N1CCN1CCC(c2cn(-c3ccc(F)cc3)c3ccc(Cl)cc23)CC1 : 0.078
O=C1NC2(CCCC2)CN1CCN1CCC(c2cn(-c3ccc(F)cc3)c3ccc(Cl)cc23)CC1 : 0.037
O=C1NCC(O)N1CCN1CCC(c2cn(-c3ccc(F)cc3)c3ccc(Cl)cc23)CC1 (centres unmarked) : 0.085
CC1(C)CN(CCN2CCC(c3cn(-c4ccc(F)cc4)c4ccc(Cl)cc34)CC2)C(=O)N1 : 0.013

Indicate the recorded ED50 value for this compound: `O=C1NCC2(CCCC2)N1CCN1CCC(c2cn(-c3ccc(F)cc3)c3ccc(Cl)cc23)CC1`
0.45

----------
SYSTEM UNDER TEST: dopamine D2 receptors (Rattus norvegicus, UniProt P61169)
Construct: dopamine D2 receptors in membranes from rat corpus striatum; from tissue; host or cells: rat corpus striatum membranes
Sequence (P61169 whole entry): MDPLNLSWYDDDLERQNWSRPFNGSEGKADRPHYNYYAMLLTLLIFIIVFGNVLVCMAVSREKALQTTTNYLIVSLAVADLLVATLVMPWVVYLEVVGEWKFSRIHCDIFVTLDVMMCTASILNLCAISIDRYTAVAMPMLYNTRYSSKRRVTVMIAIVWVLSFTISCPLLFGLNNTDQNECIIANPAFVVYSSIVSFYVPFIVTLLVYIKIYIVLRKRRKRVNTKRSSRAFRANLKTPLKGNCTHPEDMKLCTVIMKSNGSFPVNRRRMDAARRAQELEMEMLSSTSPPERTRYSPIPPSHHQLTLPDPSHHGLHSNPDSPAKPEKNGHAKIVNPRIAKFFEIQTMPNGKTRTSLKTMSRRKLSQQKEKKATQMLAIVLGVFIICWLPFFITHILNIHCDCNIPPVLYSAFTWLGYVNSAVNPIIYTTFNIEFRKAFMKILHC
PROCEDURE TEXT: Inhibition of 3H-Spiperone binding to dopamine D2 receptors in rat corpus striatum in vitro
SETTINGS: 0.5 nM 3H-spiperone, rat corpus striatum membranes, read-out: Dopamine D2 binding [^3 H]-spiroperidol
pIC50 for assorted compounds
In plain terms, pIC50 is the concentration in mol/L turned into minus its base-10 logarithm.

// below: answered compounds
O=C1NC2(CCCC2)CN1CCN1CCC(c2cn(-c3ccc(F)cc3)c3ccc(Cl)cc23)CC1 : 7.72
O=C1NCC2(CCCC2)N1CCN1CCC(c2cn(-c3ccc(F)cc3)c3ccc(Cl)cc23)CC1 : 7.52
O=C1NCC(O)N1CCN1CCC(c2cn(-c3ccc(F)cc3)c3ccc(Cl)cc23)CC1 (stereo not shown) : 8.26

Give pIC50; test system dopamine D2 receptors (Rattus norvegicus, UniProt P61169); compound O=C1NC(=O)N(CCN2CCC(c3cn(-c4ccc(F)cc4)c4ccc(Cl)cc34)CC2)C1O (stereo not shown)
7.64

Give pIC50; test system dopamine D2 receptors (Rattus norvegicus, UniProt P61169); compound O=C1NC(O)C(O)N1CCN1CCC(c2cn(-c3ccc(F)cc3)c3ccc(Cl)cc23)CC1 (stereo not shown)
7.74

Give pIC50; test system dopamine D2 receptors (Rattus norvegicus, UniProt P61169); compound COC1CNC(=O)N1CCN1CCC(c2cn(-c3ccc(F)cc3)c3ccc(Cl)cc23)CC1 (stereo not shown)
7.89

Give pIC50; test system dopamine D2 receptors (Rattus norvegicus, UniProt P61169); compound `CC1(C)C(=O)NC(=O)N1CCN1CCC(c2cn(-c3ccc(F)cc3)c3ccc(Cl)cc23)CC1`
7.70

Give pIC50; test system dopamine D2 receptors (Rattus norvegicus, UniProt P61169); compound `CC1(C)CN(CCN2CCC(c3cn(-c4ccc(F)cc4)c4ccc(Cl)cc34)CC2)C(=O)N1`
7.74

Give pIC50; test system dopamine D2 receptors (Rattus norvegicus, UniProt P61169); compound `CC1(C)CNC(=O)N1CCN1CCC(c2cn(-c3ccc(F)cc3)c3ccc(Cl)cc23)CC1`
7.85

Give pIC50; test system dopamine D2 receptors (Rattus norvegicus, UniProt P61169); compound O=C1NC(O)C(=O)N1CCN1CCC(c2cn(-c3ccc(F)cc3)c3ccc(Cl)cc23)CC1 (stereo not shown)
7.74
